System: 817829-284-R-J1-PDC complex spheroid viability;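 note: spheroids exposed to compounds for 7 days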
Assay: Anticancer human tumor 817829-284-R-J1-PDC patient-derived colon adenocarcinoma cell line growth inhibition [POLQ]; active = viability on the fitted dose curve at most 10% of control; inactive = the rest
Details: second compound 0.316 µM; first compound 3.16 µM
Protocol: Multicellular complex tumor spheroid response to Polymerase (POL) inhibitors (novobiocin, ART-558, RP6685) in combination with a variety of drugs and investigational agents in selected tumor cell lines The POL inhibitors (novobiocin, ART-558, and RP6685) were evaluated both individually and in combination with standard of care and investigational anticancer small molecules within a complex spheroid model of solid tumors. . […]
Select the matching outcome among active, inactive

[
  {
    "Compound": "CC1COCCN1c1cc(-c2ccnn2C)c2ccnc(-c3ccn[nH]3)c2n1 (stereo not given) + Cc1cccc(N(C)C(=O)C2C(O)CCN2c2nc(C)cc(C(F)(F)F)c2C#N)c1",
    "Class Name": "active"
  },
  {
    "Compound": "O=C(c1cc(Cc2n[nH]c(=O)c3ccccc23)ccc1F)N1CCN(C(=O)C2CC2)CC1 + Cc1cccc(N(C)C(=O)C2C(O)CCN2c2nc(C)cc(C(F)(F)F)c2C#N)c1",
    "Class Name": "inactive"
  },
  {
    "Compound": "CC(C)n1c(=O)n(C)c2cnc3cc(F)c(-c4ccc(OCCCN5CCCCC5)nc4)cc3c21 + COC1C(OC(N)=O)C(O)C(Oc2ccc3c(O)c(NC(=O)c4ccc(O)c(CC=C(C)C)c4)c(=O)oc3c2C)OC1(C)C",
    "Class Name": "inactive"
  },
  {
    "Compound": "CC1COCCN1c1cc(C2(S(C)(=N)=O)CC2)nc(-c2ccnc3[nH]ccc23)n1 (stereo not given) + Cc1cccc(N(C)C(=O)C2C(O)CCN2c2nc(C)cc(C(F)(F)F)c2C#N)c1",
    "Class Name": "active"
  }
]

As a next step, examine the compound that follows.
Task: Could you kindly confirm the outcome this assay logged for COc1ccc([C@@H](O)c2cc(-c3ncnc4cc(N5CCOCC5)ccc34)c(F)cc2Cl)nn1 + COC1C(OC(N)=O)C(O)C(Oc2ccc3c(O)c(NC(=O)c4ccc(O)c(CC=C(C)C)c4)c(=O)oc3c2C)OC1(C)C ?
Result: inactive
